assay: Maximum non-toxic dose in mice; details: mouse, in vivo, po; per os in mice
RECORDED_ENDPOINT: MTD

I would be grateful if you could share the reported MTD for O=C1c2[nH]cnc2N(Cc2ccc(Cl)cc2)C2=NCCN12 . ~250 mg/kg

* * *

system: passive cutaneous anaphylaxis reaction (PCA) in the rat; assay: Passive cutaneous anaphylaxis reaction (PCA) in the rat; type: in vivo; design: key: I: inactive at the specified dose; details: oral dose 25 mg./kg.
RECORDED_ENDPOINT: PCA, inactive at dose

Answered cases to consult:
STRUCTURE: O=C1c2[nH]cnc2N(CCc2ccc(Cl)cc2)C2=NCCN12
ASSAY_SYSTEM: passive cutaneous anaphylaxis reaction (PCA) in the rat
EXPERIMENTAL_RESULT: I
//
STRUCTURE: S=C1c2[nH]cnc2N(Cc2ccc(Cl)cc2)C2=NCCN12
ASSAY_SYSTEM: passive cutaneous anaphylaxis reaction (PCA) in the rat
EXPERIMENTAL_RESULT: I
//
STRUCTURE: O=C1c2[nH]cnc2N(CCCc2ccccc2)C2=NCCN12
ASSAY_SYSTEM: passive cutaneous anaphylaxis reaction (PCA) in the rat
EXPERIMENTAL_RESULT: I
//
STRUCTURE: O=C1c2[nH]cnc2N(Cc2ccccc2)C2=NCCN12
ASSAY_SYSTEM: passive cutaneous anaphylaxis reaction (PCA) in the rat
EXPERIMENTAL_RESULT: I

Could you now consider this next compound?
Provide the documented PCA, inactive at dose with passive cutaneous anaphylaxis reaction (PCA) in the rat as the system for CC(C)c1nc2c([nH]1)C(=O)N1CCN=C1N2Cc1ccccc1Cl I
